- Assay Name: Inhibition of VEGF-dependent ERK phosphorylation
Outcome Measure: pIC50
As a rule, pIC50 stands for the negative log10 of the concentration, concentration in M.

Query block: Please report the recorded pIC50 for CCn1cnc(-c2cc3nccc(Oc4ccc(NC(=O)N5CCN(c6ccc(F)cc6)C5=O)cc4F)c3s2)c1 .
Result block: 9.00

----------
- Assay Name: Half life in rat at 2.17 to 2.86 mg/kg, iv
- Type: ADME, organism-based
- Parameters: dose 2.17-2.86 mg/kg, route intravenous
- Condition: in vivo
Kindly supply the reported half-life values for the records listed here.
Your answer is read as h, so omit the unit and give the number.

Query block: Reported half-life, compound Cn1cnc(-c2cc3nccc(Oc4ccc(NC(=S)NC(=O)Cc5ccccc5)cc4F)c3s2)c1 : ____
Result block: 1.2

Query block: Quick one: half-life for Cn1cnc(-c2cc3nccc(Oc4ccc(NC(=O)C5CCN(c6ccccc6)C5=O)cc4F)c3s2)c1 (centres undefined) ?
Result block: 1.1

Query block: Param item = Cn1cnc(-c2cc3nccc(Oc4ccc(NC(=O)N5CCN(c6ccccc6)C5=O)cc4F)c3s2)c1 ; retrieve measured half-life.
Result block: 2.3

Query block: I have this compound here, CCn1cnc(-c2cc3nccc(Oc4ccc(NC(=O)N5CCN(c6ccc(F)cc6)C5=O)cc4F)c3s2)c1 , and I need its recorded half-life.
Result block: 6.3
